The reported numbers originate from the Deep4Chem optical property database.

Parameter: emission maximum. Scope: all listed entries.
ASSAY PROTOCOL: solvent given as SMILES
COND: in ClC(Cl)Cl
I only need the number, in nm, no unit after it.

A selection of reference data follows.
MOLECULE | PROPERTY | EXPERIMENTAL VALUE
F[B-]1(F)OC(c2ccc(C(F)(F)F)cc2)=Cc2c3ccccc3c3ccccc3[n+]21 | emission maximum | 446
CN(C)c1ccc(-c2cc(-c3ccc(C#N)cc3)nc(-c3ccccc3)n2)cc1 | emission maximum | 495
N#Cc1cc2ccccc2oc1=O | emission maximum | 411

# lookup: emission maximum of "CC1(C)c2cc(C#N)ccc2-c2ccc(N3c4ccccc4Oc4ccccc43)cc21" 530

# lookup: emission maximum of "CCCCCCOc1ccc(C#Cc2ccc(C#CC#Cc3ccc(C#Cc4ccc(OCCCCCC)c(OCCCCCC)c4)c4nsnc34)c3nsnc23)cc1OCCCCCC" 563

# lookup: emission maximum of "COC(=O)c1ccc(C2=C3C=CC(C)=[N+]3[B-](F)(F)n3c(C)ccc32)cc1" 538

# lookup: emission maximum of "CN(C)c1ccc2nc(-c3ccc(C=C4C(=O)c5ccccc5C4=O)cc3)sc2c1" 727

# lookup: emission maximum of "CSc1cc(-c2cc3cc4c5c(c3oc2=O)CCCN5CCC4)oc(=O)c1C#N" 570

# lookup: emission maximum of "COc1ccc(-c2nc(-c3ccccc3O)c(-c3ccccc3O)n2-c2ccc(C)cc2)cc1" 410

# lookup: emission maximum of O=P1(c2ccccc2)C(c2cc(C(F)(F)F)cc(C(F)(F)F)c2)=Cc2c3ccc4cccc5ccc(c6cc(-c7ccccc7)n1c26)c3c45 (stereo not given) 514

====

ASSAY PROTOCOL: solvent given as SMILES
COND: in ClCCl
Parameter: emission maximum. Scope: all listed entries.

COMPOUND | emission maximum
CCc1ccccc1-c1c2ccccc2c(C#Cc2ccccc2)c2cc3ccccc3cc12 | 537 nm
CCCc1ccc(C#Cc2cc(C#Cc3ccc(CCC)cc3)c3ccc4c(C#Cc5ccc(CCC)cc5)cc(C#Cc5ccc(CCC)cc5)c5ccc2c3c54)cc1 | 494 nm
Cc1ccc([N+]2=c3c4n(c5ccccc35)[B-](F)(F)[N+](c3ccc(C)cc3)=c3c=4n(c4ccccc34)[B-]2(F)F)cc1 | 808 nm
C#CC1CN2CCC1CC2[C@@H](O)c1ccnc2ccc(OC)cc12 (stereo partly drawn) | 363 nm
Cc1cc2ccccc2c2c1c1ccccc1n2-c1ccc(N(c2ccccc2)c2ccccc2)cc1 | 404 nm

# lookup: emission maximum of "COc1ccc(/N=N/c2c(O)c3ccccc3n(C)c2=O)c(S(=O)(=O)O)c1" 542 nm

# lookup: emission maximum of "CCN(CC)c1ccc(/C=N/c2ccccc2/N=C/c2ccc(N(CC)CC)cc2O)c(O)c1" 535 nm

# lookup: emission maximum of O=P1(c2ccccc2)C(c2cc(C(F)(F)F)cc(C(F)(F)F)c2)=Cc2c3ccc4cccc5ccc(c6cc(-c7ccccc7)n1c26)c3c45 (stereo not drawn) 521 nm

# lookup: emission maximum of "CCC1(CC)c2cc(C=C(C#N)C#N)ccc2-c2ccc(N(C)C)cc21" 631 nm

# lookup: emission maximum of "Cc1csc2[n+]1[B-](F)(F)n1c(c3cccc4cccc1c43)=N2" 527 nm

# lookup: emission maximum of "CCOC(=O)c1c(-c2cc3ccc(OCC=C(C)C)cc3oc2=O)nn(-c2ccccc2)c1C(=O)OCC" 425 nm

# lookup: emission maximum of "CCCCCCCCN1c2ccccc2Sc2cc(/C=C/c3ccc(N(c4ccc(/C=C/c5ccc6c(c5)Sc5ccccc5N6CCCCCCCC)cc4)c4ccc(/C=C/c5ccc(/C=C/c6ccc(N(c7ccc(/C=C/c8ccc9c(c8)Sc8ccccc8N9CCCCCCCC)cc7)c7ccc(/C=C/c8ccc9c(c8)Sc8ccccc8N9CCCCCCCC)cc7)cc6)c6nsnc56)cc4)cc3)ccc21" 710 nm

# lookup: emission maximum of "COc1cc2c(cc1OC)C1=C[C@H](c3ccc(Cl)cc3)C3(C(C#N)=C(C#N)N1CC2)c1ccccc1-c1ccccc13" 405 nm

====

Parameter: emission maximum. Scope: all listed entries.
ASSAY PROTOCOL: solvent given as SMILES
COND: in CC#N
I only need the number, in nm, no unit after it.

MOLECULE | PROPERTY | EXPERIMENTAL VALUE
Cn1cccc1-c1ccc(C#N)cc1 | emission maximum | 407
CCNc1cc2oc(=O)cc(C)c2cc1C | emission maximum | 420

# lookup: emission maximum of "COc1ccc2n1[B-](F)(F)[N+]1=CC=CC1=C2c1ccccc1" 513

# lookup: emission maximum of C#CC1CN2CCC1CC2[C@@H](O)c1ccnc2ccc(OC)cc12 (stereo partly drawn) 358

# lookup: emission maximum of "N#Cc1cc(-c2ccc(F)cc2)cnc1O" 423

====

ASSAY PROTOCOL: solvent given as SMILES
COND: in CCCCCC
Field 'label' (enum: 1 (yes) / 0 (no)). Set to 1 (yes) when emission maximum is strictly under 400 nm; else 0 (no).

MOLECULE | LABEL VALUE
CC(C)[Si](C#Cc1c2nc3c(nc2c(C#C[Si](C(C)C)(C(C)C)C(C)C)c2nc4c(nc12)C1c2ccccc2C4c2ccccc21)C1c2ccccc2C3c2ccccc21)(C(C)C)C(C)C | 0 (no)

Take the molecule "Cn1cccc1-c1ccc(C#N)cc1" and say whether its emission maximum is less than 400 nm. 1 (yes)

Take the molecule "CN(C)c1ccc(/C=C/C=C/c2nc3ccccc3s2)cc1" and say whether its emission maximum is less than 400 nm. 0 (no)

Take the molecule "N#CC1=C(c2ccc(-c3cccs3)s2)CCC1" and say whether its emission maximum is less than 400 nm. 0 (no)

Take the molecule "c1ccc(N2c3ccccc3Sc3cc(-c4cccc5nc6ccccc6cc45)ccc32)cc1" and say whether its emission maximum is less than 400 nm. 0 (no)

Take the molecule "CCN(CC)c1ccc2cc(-c3ccc(S(C)(=O)=O)cc3)oc(=O)c2c1" and say whether its emission maximum is less than 400 nm. 0 (no)

Take the molecule "CC(C)(C)c1ccc(-c2nc3c4ccc(-c5ccc6ccc7cccc8ccc5c6c78)cc4c4cc(-c5ccc6ccc7cccc8ccc5c6c78)ccc4c3n2-c2ccc(C(C)(C)C)cc2)cc1" and say whether its emission maximum is less than 400 nm. 0 (no)

Take the molecule "CC1=CC(C)=[N+]2C1=C(c1ccccc1)c1c(C)cc(C)n1[B-]2(F)F" and say whether its emission maximum is less than 400 nm. 0 (no)

Take the molecule "C(=C\c1cccnc1)/c1ccc(Nc2ccccc2)cc1" and say whether its emission maximum is less than 400 nm. 1 (yes)

Take the molecule "O=S(=O)(/N=c1\oc2cccc3c4c(-c5ccccc5)oc5cccc(c(c1-c1ccccc1)c23)c54)C(F)(F)F" and say whether its emission maximum is less than 400 nm. 0 (no)

====

Parameter: emission maximum. Scope: all listed entries.
ASSAY PROTOCOL: solvent given as SMILES
COND: in CS(C)=O
I only need the number, in nm, no unit after it.

A selection of reference data follows.
COMPOUND | PROPERTY | EXPERIMENTAL VALUE
CCOC(=O)C1=C(C)NC2=C(C(=O)c3ccccc32)C1c1ccc(N(C)C)cc1 (stereo not drawn) | emission maximum | 548
N#Cc1ccc2[nH]ccc2c1 | emission maximum | 371
c1ccc2[nH]c(-c3cc(-c4nc5ccccc5[nH]4)cc(-c4nc5ccccc5[nH]4)c3)nc2c1 | emission maximum | 379.1
C(=C\c1cnc2ccccc2n1)/c1ccc(N2CCCCC2)cc1 | emission maximum | 626
CCC1=C(C)C2=Cc3c4ccccc4c4n3[B-](c3cc[n+](C)cc3)(Oc3ccccc3-4)[N+]2=C1C=Cc1ccc(OC)cc1 (stereo not drawn) | emission maximum | 727
COc1ccc(NC(=O)C(C(=O)Nc2ccc(OC)cc2)C(c2ccccc2O)c2c(C)[nH]c3ccccc23)cc1 (stereo not drawn) | emission maximum | 360
N#Cc1cc(-c2ccc(F)cc2)cnc1O | emission maximum | 427

# evaluate next
# lookup: emission maximum of "[C-]#[N+]c1ccc(-c2ccc(NC)cc2)cc1" 436

====

ASSAY PROTOCOL: solvent given as SMILES
COND: in CC#N
PROPERTY: emission maximum
Just so you know, I need the unit written after the number.

COMPOUND SMILES | EXPERIMENTAL VALUE
c1ccc(-c2csc(-c3ccncc3)n2)cc1 | 498 nm

# lookup: emission maximum of "CCCCCCCCC1(CCCCCCCC)c2cc(-c3ccc(C(F)(F)F)cc3)ccc2-c2ccc(N(c3ccc(-n4c5ccccc5c5ccccc54)cc3)c3ccc4c(c3)C(CCCCCCCC)(CCCCCCCC)c3cc(-c5ccc(C(F)(F)F)cc5)ccc3-4)cc21" 495 nm

# lookup: emission maximum of "CC(C)CCCCN1CCc2c1ccc1c3c(ccc21)C(=O)CCC3" 489 nm

# lookup: emission maximum of "Cc1nn(-c2ccccc2)c(C2=NN(c3ccc(Br)cc3)[C@@H](c3ccccc3)[C@@H]2c2ccccc2)c1C#N" 491 nm
